The origin of these recorded values is patent US4639452A.

assay: approximate acute toxicity (MILLER and TAINTER); conditions: mouse, in vivo, ip; dose 400 mg/kg i.p.; mice
measurement_kind: mortality (%)
Answer in %, number only, no unit symbol.

Using the record for O=C(/C=C/c1ccc2c(c1)OCO2)N1CCN(CC(=O)N2CCCC2)CC1 , state its measured mortality.
0

* * *

test: approximate acute toxicity (MILLER and TAINTER); details: mouse, in vivo, iv; dose 205 mg/kg i.v.; mice
measurement_kind: mortality (%)
Provide the reading as a plain figure in %.

Answer with the recorded mortality of COc1ccc(OC)c(/C=C/C(=O)N2CCN(CC(=O)N3CCCC3)CC2)c1 only.
50
